Origin of values: paper PMC10290335

testMethodNotes: Clinical pharmacokinetics of ivermectin metabolites in blood of healthy volunteers
Type: in vivo, human
experimentalParameters: whole blood, 12 subjects, single oral 12 mg ivermectin, mean ± SE
valueType: Tmax (h)
Response body: numeric value in h, unit text excluded.

Which Tmax value is on record for CCC(C)C1OC2(CCC1C)CC1CC(CC=C(C)C(OC3CC(OC)C(OC4CC(O)C(O)C(C)O4)C(C)O3)C(C)C=CC=C3COC4C(O)C(CO)=CC(C(=O)O1)C34O)O2 (stereo not shown) [M4, 3″-O-desmethyl, 4-hydroxy-H2B1a] ?
6.0

# iterate: CC[C@H](C)[C@H]1O[C@]2(CC[C@@H]1CO)C[C@@H]1C[C@@H](C/C=C(\C)[C@@H](O[C@H]3C[C@H](OC)[C@@H](O)[C@H](C)O3)[C@@H](C)/C=C/C=C3\CO[C@@H]4[C@H](O)C(C)=C[C@@H](C(=O)O1)[C@]34O)O2 [M5, 24-hydroxy-H2B1a monosaccharide]
6.4

// repeat for CCC(C)C1OC2(CCC1C)CC1CC(CC=C(C)C(OC3CC(OC)C(OC4CC(O)C(O)C(C)O4)C(C)O3)C(C)C=CC=C3COC4C(O)C(C)=CC(C(=O)O1)C34O)O2 (stereo not shown) and report
7.0

How about CCC(C)C1OC2(CCC1C)CC1CC(CC=C(C)C(OC3CC(OC)C(OC4CC(OC)C(O)C(C)O4)C(C)O3)C(C)C=CC=C3COC4C(O)C(CO)=CC(C(=O)O1)C34O)O2 (stereo not shown) [M2, 4-hydroxy-H2B1a] ?
6.3
